TGT: HLA-DRB1*04:01 (Homo sapiens, UniProt P01903+P01911, A100K/A169T/F76Y/I96L/K127E/L162R/M171V/N62H/P40V/Q125Y/R42H/S133A/S149N/S66Y/V115G/V209L/W38E)
ASSAY: biochemical
REPORTED_PROPERTY: log10(IC50) (log10 of the value in µM)
Hi team, quick reminder: these entries are log10 of IC50 (µM).

Query block: Name the reported log10(IC50) value associated with the compound CC[C@H](C)[C@H](N)C(=O)N1CCC[C@H]1C(=O)N[C@@H](Cc1ccccc1)C(=O)N[C@@H](C)C(=O)N[C@@H](CCSC)C(=O)N[C@@H](CCC(N)=O)C(=O)N[C@@H](CCSC)C(=O)N[C@@H](C)C(=O)N[C@@H](Cc1ccc(O)cc1)C(=O)N[C@@H](CCCNC(=N)N)C(=O)N[C@@H](Cc1ccccc1)C(=O)N[C@@H](CC(N)=O)C(=O)NCC(=O)N[C@H](C(=O)NCC(=O)O)[C@@H](C)CC [peptide 180]
Result block: -0.35

Query block: Also, CC(C)C[C@H](NC(=O)[C@H](C)NC(=O)[C@H](CC(C)C)NC(=O)[C@H](CC(C)C)NC(=O)[C@@H](NC(=O)[C@H](CCC(N)=O)NC(=O)[C@H](Cc1ccccc1)NC(=O)[C@H](CCCNC(=N)N)NC(=O)[C@@H](N)[C@@H](C)O)[C@@H](C)O)C(=O)N[C@@H](Cc1c[nH]cn1)C(=O)N[C@@H](CCCNC(=N)N)C(=O)N[C@@H](CO)C(=O)N[C@@H](Cc1ccc(O)cc1)C(=O)N[C@@H](CC(C)C)C(=O)N[C@H](C(=O)O)[C@@H](C)O [peptide 48] please.
Result block: -0.47

Query block: Also, CC[C@H](C)[C@H](NC(=O)[C@H](CCCCN)NC(=O)[C@@H](N)Cc1ccccc1)C(=O)N[C@@H](Cc1ccc(O)cc1)C(=O)N[C@@H](CO)C(=O)N[C@@H](CCCCN)C(=O)N[C@@H](Cc1c[nH]cn1)C(=O)N[C@H](C(=O)N1CCC[C@H]1C(=O)N[C@H](C(=O)N[C@@H](CC(N)=O)C(=O)N[C@@H](CC(C)C)C(=O)N[C@H](C(=O)N[C@@H](CCCNC(=N)N)C(=O)N[C@@H](CC(=O)O)C(=O)O)C(C)C)[C@@H](C)CC)[C@@H](C)O [peptide 41] please.
Result block: 0.72

Query block: Also, CC[C@H](C)[C@H](NC(=O)CN)C(=O)N[C@@H](Cc1ccc(O)cc1)C(=O)N[C@@H](CCC(N)=O)C(=O)N[C@H](C(=O)N[C@@H](CO)C(=O)N[C@@H](CC(N)=O)C(=O)N[C@@H](Cc1ccccc1)C(=O)N[C@@H](CCCNC(=N)N)C(=O)N[C@H](C(=O)N[C@@H](CCC(N)=O)C(=O)N1CCC[C@H]1C(=O)N[C@H](C(=O)N[C@@H](CCC(=O)O)C(=O)N[C@@H](CO)C(=O)O)[C@@H](C)O)C(C)C)[C@@H](C)O please.
Result block: -1.21

Query block: Also, CC[C@H](C)[C@H](NC(=O)[C@H](CC(=O)O)NC(=O)CNC(=O)[C@H](CC(C)C)NC(=O)[C@H](CS)NC(=O)[C@H](CC(=O)O)NC(=O)CNC(=O)[C@H](Cc1ccc(O)cc1)NC(=O)[C@H](CCC(N)=O)NC(=O)[C@H](CCCCN)NC(=O)[C@@H](NC(=O)[C@H](Cc1ccccc1)NC(=O)CNC(=O)[C@H](C)N)[C@@H](C)CC)C(=O)N[C@@H](C)C(=O)O [peptide 167] please.
Result block: -0.08

====

TGT: HLA-DRB1*11:01 (Homo sapiens, UniProt P01903+P01911, A100R/A169T/A87E/I96F/K41T/L162R/M171V/P40S/Q125H/Q178H/Q39Y/Q99D/R42S/S66Y/T262R/V115G/W38E)
Sequence (P01903 26-254 limits assumed, other chains not shown): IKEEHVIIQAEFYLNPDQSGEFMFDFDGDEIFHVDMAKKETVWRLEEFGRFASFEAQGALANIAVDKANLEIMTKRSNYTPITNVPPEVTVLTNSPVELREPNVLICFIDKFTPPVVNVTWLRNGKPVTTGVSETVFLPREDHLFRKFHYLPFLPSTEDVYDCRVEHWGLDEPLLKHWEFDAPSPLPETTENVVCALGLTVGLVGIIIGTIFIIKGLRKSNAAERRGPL
ASSAY: biochemical
REPORTED_PROPERTY: pIC50
Field pIC50 (float): negative decimal logarithm of the concentration in molar.

Query block: Name the reported pIC50 value associated with the molecule CC[C@H](C)[C@H](NC(=O)[C@H](CCCCN)NC(=O)[C@@H](N)Cc1ccccc1)C(=O)N[C@@H](Cc1ccc(O)cc1)C(=O)N[C@@H](CO)C(=O)N[C@@H](CCCCN)C(=O)N[C@@H](Cc1c[nH]cn1)C(=O)N[C@H](C(=O)N1CCC[C@H]1C(=O)N[C@H](C(=O)N[C@@H](CC(N)=O)C(=O)N[C@@H](CC(C)C)C(=O)N[C@H](C(=O)N[C@@H](CCCNC(=N)N)C(=O)N[C@@H](CC(=O)O)C(=O)O)C(C)C)[C@@H](C)CC)[C@@H](C)O [peptide 41]
Result block: 6.64

Query block: Also, CC[C@H](C)[C@H](NC(=O)[C@H](Cc1ccccc1)NC(=O)[C@H](CO)NC(=O)[C@H](CCCNC(=N)N)NC(=O)[C@H](CCCCN)NC(=O)[C@H](CO)NC(=O)[C@@H]1CCCN1C(=O)[C@@H](N)CCCCN)C(=O)N[C@@H](CCC(=O)O)C(=O)N[C@@H](CC(=O)O)C(=O)N[C@@H](CC(C)C)C(=O)N[C@@H](CC(C)C)C(=O)N[C@@H](Cc1ccccc1)C(=O)N[C@@H](CC(N)=O)C(=O)N[C@@H](CCCCN)C(=O)O [peptide 163] please.
Result block: 6.52

Query block: Also, CC(C)C[C@H](NC(=O)[C@H](CCCNC(=N)N)NC(=O)[C@H](Cc1ccc(O)cc1)NC(=O)[C@H](CC(C)C)NC(=O)[C@@H](N)Cc1ccc(O)cc1)C(=O)N[C@@H](Cc1ccccc1)C(=O)N[C@@H](CCCNC(=N)N)C(=O)N[C@@H](CCCCN)C(=O)N[C@@H](CO)C(=O)N[C@@H](CC(N)=O)C(=O)N[C@@H](CC(C)C)C(=O)N[C@@H](CCCCN)C(=O)N1CCC[C@H]1C(=O)N[C@@H](Cc1ccccc1)C(=O)N[C@@H](CCC(=O)O)C(=O)O [peptide 91] please.
Result block: 8.38

Query block: Also, CSCC[C@H](NC(=O)[C@H](CC(C)C)NC(=O)[C@H](Cc1ccccc1)NC(=O)[C@@H]1CCCN1C(=O)[C@H](CCC(N)=O)NC(=O)[C@H](CO)NC(=O)[C@@H](NC(=O)[C@H](Cc1ccc(O)cc1)NC(=O)[C@H](CCC(=O)O)NC(=O)[C@H](Cc1ccccc1)NC(=O)[C@@H](NC(=O)[C@@H](N)CS)[C@@H](C)O)C(C)C)C(=O)N[C@@H](CC(=O)O)C(=O)N[C@@H](CC(C)C)C(=O)N[C@@H](CCC(=O)O)C(=O)O [peptide 34] please.
Result block: 5.47

====

TGT: HLA-DRB1*12:01 (Homo sapiens, UniProt P01903+P01911, A100R/A169T/D57E/D86V/F55L/H45Y/K41T/L162R/M171V/P40S/Q125H/Q178H/Q39Y/Q99D/R42G/S66L/T262R/V114A/V67L/W38E/Y59H/Y61H/Y89S)
ASSAY: biochemical
REPORTED_PROPERTY: IC50 (µM)
Note: unit µM is implicit; provide only the numeric part.

Query block: Name the reported IC50 value associated with the molecule CC[C@H](C)[C@H](NC(=O)[C@H](CC(=O)O)NC(=O)CNC(=O)[C@H](CC(C)C)NC(=O)[C@H](CS)NC(=O)[C@H](CC(=O)O)NC(=O)CNC(=O)[C@H](Cc1ccc(O)cc1)NC(=O)[C@H](CCC(N)=O)NC(=O)[C@H](CCCCN)NC(=O)[C@@H](NC(=O)[C@H](Cc1ccccc1)NC(=O)CNC(=O)[C@H](C)N)[C@@H](C)CC)C(=O)N[C@@H](C)C(=O)O [peptide 167]
Result block: 17

Query block: Also, CC(C)C[C@H](NC(=O)[C@H](C)NC(=O)[C@H](CC(C)C)NC(=O)[C@H](CC(C)C)NC(=O)[C@@H](NC(=O)[C@H](CCC(N)=O)NC(=O)[C@H](Cc1ccccc1)NC(=O)[C@H](CCCNC(=N)N)NC(=O)[C@@H](N)[C@@H](C)O)[C@@H](C)O)C(=O)N[C@@H](Cc1c[nH]cn1)C(=O)N[C@@H](CCCNC(=N)N)C(=O)N[C@@H](CO)C(=O)N[C@@H](Cc1ccc(O)cc1)C(=O)N[C@@H](CC(C)C)C(=O)N[C@H](C(=O)O)[C@@H](C)O [peptide 48] please.
Result block: 0.018

Query block: Also, CC(C)[C@H](N)C(=O)N[C@@H](Cc1ccccc1)C(=O)N[C@@H](CC(N)=O)C(=O)N[C@@H](C)C(=O)N[C@H](C(=O)N[C@@H](CCCNC(=N)N)C(=O)N[C@@H](Cc1ccccc1)C(=O)N[C@@H](C)C(=O)N[C@@H](CO)C(=O)N[C@H](C(=O)N[C@@H](Cc1ccc(O)cc1)C(=O)N[C@@H](C)C(=O)N[C@@H](Cc1c[nH]c2ccccc12)C(=O)N[C@@H](CC(N)=O)C(=O)N[C@@H](CCCNC(=N)N)C(=O)O)C(C)C)[C@@H](C)O [peptide 69] please.
Result block: 0.5
